experiment: Pharmacokinetics in SD rats by oral gavage; type: in vivo; settings: male, Sprague-Dawley, rat, plasma, PO 10 mg/kg, read-out: Bioavailability F
property_name: bioavailability (%)

1. C[C@@H]1[C@H](c2c(F)ccc(F)c2F)C[C@H](NC(=O)c2cc3c(o2)CC[C@]2(C3)C(=O)Nc3ncccc32)C(=O)N1CC(F)(F)F :: 38.6

P: C[C@@H]1[C@H](c2c(F)ccc(F)c2F)C[C@H](NC(=O)c2cnc3c(c2)C[C@@]2(C3)C(=O)Nc3ncccc32)C(=O)N1CC(F)(F)F [Atogepant, reference compound]
Q: C[C@@H]1[C@H](c2c(F)ccc(F)c2F)C[C@H](NC(=O)c2cc3c(s2)C[C@]2(C3)C(=O)Nc3ncccc32)C(=O)N1CC(F)(F)F
IN: Which item exceeds the other in bioavailability, P or Q ? Mark your answer with the label of the selected entry.
OUT: Q
(Q: 90.5%, P: 12.5%)

---

experiment: Pharmacokinetics in Cynomolgus monkeys by oral gavage; format: in vivo; settings: male, cynomolgus monkey, plasma, PO 2 mg/kg
property_name: AUC (ng·h/mL)

1: C[C@@H]1[C@H](c2c(F)ccc(F)c2F)C[C@H](NC(=O)c2cc3c(s2)C[C@]2(C3)C(=O)Nc3ncccc32)C(=O)N1CC(F)(F)F
2: C[C@@H]1[C@H](c2c(F)ccc(F)c2F)C[C@H](NC(=O)c2cc3c(o2)CC[C@]2(C3)C(=O)Nc3ncccc32)C(=O)N1CC(F)(F)F
IN: Which item exceeds the other in AUC, 1 or 2 ? Mark your answer with the label of the selected entry.
OUT: 1

---

biological target: CGRP receptor (Homo sapiens, UniProt O60894+Q16602); test: Affinity for human CGRP receptor ([125I]h-CGRPα competition, CHO cell membranes); conditions: 0.03 nM [125I]h-CGRPα; Cheng Prusoff; read-out: Ki of the affinity determination to human CGRP receptor
pKi: −log10 of the molar value.
property_name: pKi

Some solved entries appear below for comparison.
1) C[C@@H]1[C@H](c2ccccc2)C[C@H](NC(=O)c2cnc3c(c2)C[C@@]2(C3)C(=O)Nc3ncccc32)C(=O)N1CC(F)(F)F [Ubrogepant, reference compound] :: 10.57
2) C[C@@H]1[C@H](c2c(F)ccc(F)c2F)C[C@H](NC(=O)c2cc3c(s2)C[C@]2(C3)C(=O)Nc3ncccc32)C(=O)N1CC(F)(F)F :: 10.72

I: C[C@@H]1[C@H](c2c(F)ccc(F)c2F)C[C@H](NC(=O)c2cc3c(o2)CC[C@]2(C3)C(=O)Nc3ncccc32)C(=O)N1CC(F)(F)F
II: C[C@@H]1[C@H](c2c(F)ccc(F)c2F)C[C@H](NC(=O)c2cnc3c(c2)C[C@@]2(C3)C(=O)Nc3ncccc32)C(=O)N1CC(F)(F)F [Atogepant, reference compound]
IN: Form: Entry with minimum pKi (choose one): I / II Mark your answer with the label of the selected entry.
OUT: I
(I: 10.77, II: 11.01)

---

test: Pharmacokinetics in SD rats by oral gavage; type: in vivo; conditions: male, Sprague-Dawley, rat, plasma, PO 10 mg/kg, read-out: Plasma concentration Cmax
property_name: Cmax (ng/mL)

I: C[C@@H]1[C@H](c2c(F)ccc(F)c2F)C[C@H](NC(=O)c2cc3c(o2)CC[C@]2(C3)C(=O)Nc3ncccc32)C(=O)N1CC(F)(F)F
II: C[C@@H]1[C@H](c2c(F)ccc(F)c2F)C[C@H](NC(=O)c2cnc3c(c2)C[C@@]2(C3)C(=O)Nc3ncccc32)C(=O)N1CC(F)(F)F [Atogepant, reference compound]
III: C[C@@H]1[C@H](c2c(F)ccc(F)c2F)C[C@H](NC(=O)c2cc3c(s2)C[C@]2(C3)C(=O)Nc3ncccc32)C(=O)N1CC(F)(F)F
IN: Exam item: list the entries in increasing order of Cmax. List each label, following the requested order.
OUT: II, I, III
